# measurement-notes: Photophysical property of the compound assessed as singlet oxygen quantum yield under 15 W photoirradiation with blue LED light by EPR spectrophotometric analysis
# Format: physicochemical
# Design: unit not given here
Returns Fulfilled if the recorded Activity is greater than or equal to 20, and Not fulfilled otherwise.

entry_smiles=CCN(CC)c1ccc2cc(-c3nc4ccc(OCCCN5CCOCC5)cc4c(=O)[nH]3)c(=O)oc2c1 qualitative_label="Not fulfilled"
entry_smiles=CCN(CC)c1ccc2cc(-c3nc4ccc(OCc5cn(CCNS(=O)(=O)c6ccc(C)cc6)nn5)cc4c(=O)[nH]3)c(=O)oc2c1 qualitative_label=Fulfilled
entry_smiles=CCN(CC)c1ccc2cc(-c3nc4ccc(O)cc4c(=O)[nH]3)c(=O)oc2c1 qualitative_label="Not fulfilled"
entry_smiles=CCN(CC)c1ccc2cc(-c3nc4ccc(OCCN5CCCCC5)cc4c(=O)[nH]3)c(=O)oc2c1 qualitative_label=Fulfilled
entry_smiles=CCN(CC)c1ccc2cc(-c3nc4ccc(OCc5cn(CCC[P+](c6ccccc6)(c6ccccc6)c6ccccc6)nn5)cc4c(=O)[nH]3)c(=O)oc2c1.[Br-] qualitative_label=Fulfilled
